# assay-details: LNCaP granularity increase inducers, single-point recheck – cell-based, side scatter shift, flow cytometry, confirmation (AID 1069);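 note: LNCaP human prostate cancer cells in low-serum medium with charcoal-stripped FBS; percent of cells with raised granularity gated so DMSO controls show 10%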
# measurement-parameters: LNCaP differentiation, 4 d, at 100 µM, active compounds read high
quantity-measured: side scatter shift (%)

INSERT INTO assay_data (compound, unit_tag, value_measured) VALUES
  ('Cc1cc(C)n2nc(SCC(=O)Nc3ccc(F)cc3)nc2n1', '%', 4),
  ('CCN(CC)CCNC(=O)c1ccc(N2CCCCC2)c(NS(=O)(=O)c2ccc(C)cc2)c1', '%', 17.6),
  ('Cc1noc(C)c1S(=O)(=O)N1CCC(C(=O)NCCN2CCC(C)CC2)CC1', '%', 12.7),
  ('CN(C)CCCN1c2ccccc2CCc2ccc(Cl)cc21', '%', 20.9),
  ('COc1ccc(-c2cc(-c3ccc(F)cc3)nc(N3CCN(C)CC3)n2)cc1', '%', 33.3),
  ('CCCCC(=O)NCCc1ccc(S(N)(=O)=O)cc1', '%', 12.6),
  ('COc1ccc(-c2cc(C(F)(F)F)nc(N3CCN(Cc4ccccc4)CC3)n2)cc1OC', '%', 51.3),
  ('CCOC(=O)N1CCC(NC(=O)c2cc3c(-c4ccc(Cl)cc4)nn(C)c3s2)CC1', '%', 22.5),
  ('O=c1cc(N2CCN(c3ccc(F)cc3)CC2)[nH]c(=O)n1C1CCCCC1', '%', 16.8),
  ('COc1ccc(-c2coc3c(CN4CCCCC4)c(O)c(CN4CCCCC4)c(O)c3c2=O)cc1', '%', 28.6),
  ('Cc1oc(-c2ccccc2F)nc1CN1CCC(C(=O)NCc2ccco2)CC1', '%', 23.3),
  ('CCc1cc(C)cc(OCCNC(=O)c2ncn[nH]2)c1', '%', 3.5),
  ('COc1ccc(-c2nc(CN3CCC(C(=O)N4CCc5ccccc54)CC3)c(C)o2)cc1OC', '%', 12.5),
  ('CCOc1ccc(OCC)c(NC(=O)C2CCCN(S(=O)(=O)c3c(C)noc3C)C2)c1 (stereo not drawn)', '%', 19.8),
  ('C=CCn1cc(C(=O)N2CCN(C)CC2)c(=O)c2cc(S(=O)(=O)N3CCCC3)ccc21', '%', 8.9),
  ('Cc1oc(-c2ccc(Cl)cc2)nc1CN1CCCC(C(=O)NCc2cccnc2)C1 (stereo not drawn)', '%', 25),
  ('COc1ccc(N2CCN(CCCNC(=O)CN3CCN(Cc4ccccc4C)C3=O)CC2)cc1', '%', 15.8),
  ('CCOc1ccc(-c2cc(C(=O)NCCCN3CCN(CC)CC3)c3ccccc3n2)cc1', '%', 28.2);
